TEST TARGET: T1, Antibody 178-10_His CA_W152C_L452R_D614G (27081) (SARS-CoV-2, UniProt P0DTC2 14-685)
T1 construct: domain: S1; also called CA variant S1; California variant S1
EXPERIMENTAL DETAILS: Carterra SPR

>  <BINDER>
8-06 (VHH, not shown: a dimerising Fc or GST, also called 8-6) VHH: EVQLVESGGGLVQPGGSLRLSCAASGFTFDYYAMGWFRQAPGKEREFVSAIDSEGRTSYADSVKGRFTISADNSKNTAYLQMNSLKPEDTAVYYCARWGPFDIWGQGTLVTVSS

>  <binding result>
no binding

$$$$
>  <BINDER>
3-17 (VHH, not shown: a dimerising Fc or GST) VHH: EVQLVESGGGLVQPGGSLRLSCAASGRTSSSAVMGWFRQAPGKEREFVAAINRGGSTIYVDSVKGRFTISADNSKNTAYLQMNSLKPEDTAVYYCATGPYRSYFARSYLWGQGTLVTVSS

>  <binding result>
no binding

$$$$
